Values from patent US20240010721A1

Target: T1, cynomolgus ROR1 (cynoROR1) on CHO-K1 cells (cynomolgus, UniProt A0A2K5WTX7 30-937)
T1 construct: whole, on cells; also called CHO-K1-cynoROR1; CHO-K1-cyROR1
Assay: flow cytometry (FACS) on CHO-K1-cynoROR1 cells, antibody 0.01-100 nM, median fluorescence intensity
measure.name: EC50 (read off the curve)

PR001415 (antibody, human IgG1, kappa, V domains shown, fully human IgG1, kappa) VH: EVQLVESGGGVVQPGRSLRLSCAASGFTFSNSGMHWVRQAPGKGLEWVAIMWYDGSNKDYADSVKGRFTISRDTSKNTLYLQMNSLRAEDTAVYYCAREQARSFDLWGRGTLVTVSS VL: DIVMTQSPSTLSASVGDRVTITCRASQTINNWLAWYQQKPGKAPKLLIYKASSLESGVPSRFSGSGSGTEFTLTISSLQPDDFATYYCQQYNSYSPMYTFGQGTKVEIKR: ~0.9 nM

Query binder follows.
// lookup EC50 (read off the curve) for PR001417 (antibody, V domains shown, fully human IgG1, kappa) VH: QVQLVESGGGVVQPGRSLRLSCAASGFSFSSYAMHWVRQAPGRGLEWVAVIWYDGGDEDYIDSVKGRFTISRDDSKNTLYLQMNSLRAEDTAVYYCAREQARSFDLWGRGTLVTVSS VL: DVVMTQSPSTLSASVGDRVTITCRASQSINSWLAWYQQKPGKAPKLLIYKASSLESGVPSRFSGSGSGTEFTLTISSLQPDDFATYYCQQYNSYSPMYTFGQGTKVEIKR
~2 nM
